Data credit: PubChem BioAssay (NCI)

Test system: OVCAR-5 ovarian
assay_protocol: NCI tumour cell line growth inhibition, 48 h

compound	TGI
Cc1ccc(C(=O)Nc2ccc(CP(=O)(O)O)cc2CP(=O)(O)O)cc1N	> 100 µM
COC(=O)CCC(C)[C@H]1CCC2C3CC[C@@H]4CC5(CC[C@]4(C)C3C[C@H](OC(C)=O)[C@@]21C)OOC1(CCCCC1)OO5 (stereo not given in full)	> 100 µM
CC1(C)CCC[C@@]2(C)C1CC[C@@]1(CO)O[C@H](C3=CC(=O)OC3O)C[C@H]12 (stereo not given in full)	37.5 µM
Cc1cc2nc(N3C(=O)/C(=C/Cc4ccco4)N=C3c3ccccc3)sc2cc1C	> 100 µM
O=C([O-])c1ccc([I+]c2ccccc2)cc1	> 100 µM
CCOC(=O)[C@@H](C)C[C@H](Cc1ccccc1)NC(=O)c1csc([C@@H](C[C@H](C(C)C)N(C)C(=O)CNC(=O)[C@H]2CCCCN2C)OC(C)=O)n1	> 14.3 µM
CCOC(=O)CNC(=O)c1[nH]cnc1/N=N/N(C)C	> 100 µM
BrC1(c2ccccc2)C[n+]2c(-c3ccccc3)cc(-c3ccccc3)cc2-c2ccccc21 (stereo not given)	4.1 µM
O=c1[nH]nc(Nc2ccc(Cl)cc2)c2nnn(C3CCCCC3)c12	> 100 µM
CC(C)(NO)/C(=N\O)c1ccccc1	> 10 µM
